- EXPERIMENTAL_SYSTEM: Pantothenate synthetase (Mycobacterium tuberculosis (strain ATCC 25618 / H37Rv))
- EXPERIMENT_SUMMARY: Coupled enzyme confirmation of inhibitors against recombinant Mtb PanC (AID 375);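 also: 0% = full reaction with vehicle and 100% = no enzyme background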
- CONDITION_PARAMETERS: coupled enzyme assay; at 10 µM, active compounds read high
# label = TRUE if inhibition >= 2% else FALSE

Study these solved cases before continuing.
| COMPOUND | CLASS |
| --- | --- |
| CCOC(=O)c1ccc(NC(=O)CSc2n[nH]c(-c3ccncc3)n2)cc1 | TRUE |
| COc1ccc(C(=O)Nc2nc(C)c(C(=O)N(C)C)s2)cc1OC | FALSE |
| O=C(NCc1ccc2c(c1)OCO2)C1CCC(CNS(=O)(=O)c2ccccc2)CC1 (stereo not given) | FALSE |
| COC(=O)Nc1ccc(S(=O)(=O)N2CCN(c3ccc(F)cc3)CC2)cc1 | FALSE |
| COc1ccc(C(C(C(=O)c2ccco2)N2CCOCC2)N2CCOCC2)cc1 (stereo not given) | TRUE |

Below: the item to evaluate.
Inquiry: State whether the measured inhibition reaches 2%, counting equality as reaching it, for CCOc1ccc(C(=O)OCc2nnc(-c3cccs3)o2)cc1OC
Reply text: FALSE

---

- EXPERIMENT_SUMMARY: growth suppression of yeast trafficking mutant, preliminary HTS, modulators of trafficking downstream of Golgi apparatus project, 1536-format plate, OD 615 nm (AID 637)
- CONDITION_PARAMETERS: yeast transport mutant growth, absorbance 615 nm, 18 h; active compounds read high
Provide the recorded inhibition for the entries that follow.
Give bare numbers, in %.

Illustrative cases are given below, each with its answer.
| MOLECULE | ENDPOINT_UNIT | inhibition |
| --- | --- | --- |
| COC(=O)c1c(C)n(Cc2ccc3c(c2)OCO3)c2ccc(O)cc12 | % | -1.94 |
| COc1ccccc1N1CCN(Cc2cccc(OC)c2O)CC1 | % | 5.25 |
| COC(=O)c1ccccc1-n1c(C)nc2ccccc2c1=O | % | -5.97 |
| Cc1ccc(Cn2c(C)c3cnn(CC(=O)N4CCC5(CC4)OCCO5)c(=O)c3c2C)cc1 | % | -1.09 |
| COc1ccc(CCn2c(O)c(C=NCc3cccnc3)c(=O)[nH]c2=O)cc1OC | % | 1.97 |
| COc1ccc(S(=O)(=O)NC(CC(=O)N2CCC3(CC2)OCCO3)c2ccco2)cc1 (stereo not drawn) | % | -0.48 |
| CCOc1ccc(Br)c(C2(O)CC(C)N(C)CC2C)c1 (stereo not drawn) | % | -1.48 |
| CC(C)[C@@]1(NC(=O)[C@@H]2C[C@@H]3c4cccc5[nH]cc(c45)C[C@H]3N(C)C2)O[C@@]2(O)[C@@H]3CCCN3C(=O)[C@H](Cc3ccccc3)N2C1=O | % | -1.67 |
| Cc1ccc2nc(N3CCN(C)CC3)[nH]c2c1 | % | -1.13 |
| CN1CCN(c2nc3ccccc3c(=O)n2-c2ccccc2)CC1 | % | -1.17 |

// for each molecule below, give its inhibition
1. CCCCCCC(N)CC(=O)O (stereo not drawn)
2. N=C(N)c1c(O)n(C2CCCCC2)c(=O)n(C2CCCCC2)c1=O
3. O=c1[nH]c(=O)n(-c2ccc(F)cc2)c(O)c1C=Nc1ccccc1N1CCCC1
4. CN1CCC(N(C)c2ncnc3ccc(Br)cc23)CC1
5. O=C(O)Cn1cc(C(=O)c2ccccc2)c2ccccc21
6. Cc1cccc(-n2c(-c3ccco3)nc3ccccc3c2=O)n1

Reply text:
[-8.17, 7.14, 3, 0.79, -0.36, 49.3]
